biological target: Histamine H3 receptor (Cavia porcellus, UniProt Q9JI35); experiment: Histamine H3 radioligand binding assay, guinea pig cortex ([3H]-R-α-methylhistamine); settings: guinea pig cortex membranes, competition with 1 nM [3H]-R-α-methylhistamine; read-out: pKi (Guinea pig cortex) (converted)
Sequence (Q9JI35 whole entry): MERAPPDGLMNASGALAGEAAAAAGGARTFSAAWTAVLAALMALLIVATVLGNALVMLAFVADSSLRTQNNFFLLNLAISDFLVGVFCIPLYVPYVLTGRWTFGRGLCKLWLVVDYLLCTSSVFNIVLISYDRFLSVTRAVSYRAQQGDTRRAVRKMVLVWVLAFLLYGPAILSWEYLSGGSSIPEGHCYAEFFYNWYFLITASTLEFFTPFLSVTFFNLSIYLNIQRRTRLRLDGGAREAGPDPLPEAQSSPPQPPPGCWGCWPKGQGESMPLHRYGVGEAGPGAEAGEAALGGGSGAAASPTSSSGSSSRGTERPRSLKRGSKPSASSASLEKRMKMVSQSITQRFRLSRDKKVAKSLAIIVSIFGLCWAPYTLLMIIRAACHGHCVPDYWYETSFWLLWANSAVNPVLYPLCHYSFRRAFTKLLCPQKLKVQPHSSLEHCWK
Counter-ions that a name gives are not always drawn.
readout: Ki (nM)
Numbers only, in nM.

{"compound": "N=C(NCCCN1CCCC1)NCc1ccc2[nH]cnc2c1 [Example 13, tris-hydrochloride]", "unit-spec": "nM", "quantitative-readout": 20}

I'm hoping you can list Ki for every compound here, please.
1. CN1CCC[C@H]1CCCNS(=O)(=O)CCc1ccc(Cl)cc1 [Example 102]
2. CNC(=NCCCN1CCCC1)NCc1ccc(Cl)cc1 [Example 64]
3. O=S(=O)(NCCCN1CCCC1)c1ccc2ccccc2c1 [Example 82]

1: 63.1; 2: 63.1; 3: 316

Supply recorded Ki for C[C@H](NC(=N)NCCCCCN1CCCC1)c1ccccc1 [Example 49, bis-hydrochloride] here.
6.31

----------
biological target: Histamine H3 receptor (Cavia porcellus); test: Histamine H3 radioligand binding assay, guinea pig cortex ([3H]-R-α-methylhistamine); details: guinea pig cortex membranes, competition with 1 nM [3H]-R-α-methylhistamine; read-out: pKi (Guinea pig cortex) (converted)
Where a name gives a salt, the structure may show the parent alone.
readout: Ki (nM)
Numbers only, in nM.

Study these solved cases before continuing.
{"compound": "CNC(=O)CN(CCC[C@@H]1CCCN1C)S(=O)(=O)NCc1ccc(Cl)cc1", "target-desc": "Histamine H3 receptor (Cavia porcellus)", "Ki (nM)": 2000}
{"compound": "CN1CCC[C@H]1CCCNS(=O)(=O)Cc1ccc(Br)cc1", "target-desc": "Histamine H3 receptor (Cavia porcellus)", "Ki (nM)": 251}
{"compound": "N=C(NCCCN1CCCC1)NCc1ccc(Br)cc1 [Example 9, bis-hydrochloride]", "target-desc": "Histamine H3 receptor (Cavia porcellus)", "Ki (nM)": 5.01}
{"compound": "N=C(NCCCN1CCCC1)NCCCC12CC3CC(CC(C3)C1)C2 [Example 34, bis-hydrochloride]", "target-desc": "Histamine H3 receptor (Cavia porcellus)", "Ki (nM)": 316}
{"compound": "O=S(=O)(Cc1ccc(Cl)cc1)NCCCN1CCCC1", "target-desc": "Histamine H3 receptor (Cavia porcellus)", "Ki (nM)": 1000}

I'm hoping you can list Ki for every compound here, please.
1. CN1CCC[C@H]1CCCN(CCO)S(=O)(=O)NCc1ccc(Cl)cc1
2. CN1CCC[C@H]1CCCN(C)S(=O)(=O)NCc1ccc(Cl)cc1
3. N=C(NCCCCCN1CCCC1)NCc1ccc(C2CCCCC2)cc1 [Example 57, bis-hydrochloride]
4. N=C(NCCCN1CCCC1)NCc1cccc(Br)c1 [Example 10, bis-hydrochloride]

1. 1260
2. 126
3. 20
4. 25.1

----------
Target: UniProt Q9JI35
Experiment: Histamine H3 functional assay, guinea pig ileum (ileal longitudinal muscle, myenteric plexus)
Parameters: species or system tissue
Conditions: antagonist affinity from rightward shift of R-(α)-methylhistamine E/[A] curves (Schild); typical variance ±0.15 log units; read-out: pKb (Guinea pig ileum) (converted)
Protocol: • 1. J. Med. Chem 1994, 314. • 2. WO 97/29092 Histamine H3 Functional Assay—Guinea Pig Ileum The biological activity of the compounds of the examples was measured using the ileal longitudinal muscle, myenteric plexus assay described by Paton and Aboo Zar (J. Physiol. 1968, 194, 13-33). […] All measurements were recorded isometrically (Grass FTO3 transducer). […] The experimental E/[A] curve data was expressed as the percentage inhibition of the peak height of electrically-stimulated contraction. […]
Structures can show the parent of a compound that is named as a salt.
readout: Kb

Study these solved cases before continuing.
{"compound": "N=C(NCCCCCN1CCCC1)NCc1ccc(Cl)cc1 [Example 18, bis-hydrochloride]", "Kb": "50.1 nM"}
{"compound": "N=C(NCCCCN1CCCC1)NCc1ccc(C2CCCCC2)cc1 [Example 56, bis-hydrochloride]", "Kb": "63.1 nM"}
{"compound": "N=C(NCCCCN1CCCC1)NCCC12CC3CC(CC(C3)C1)C2 [Example 35, bis-hydrochloride]", "Kb": "20 nM"}
{"compound": "C[C@@H](c1ccccc1)N(CCCCCN1CCCC1)C(=N)N [Example 75, bis-hydrochloride]", "Kb": "126 nM"}
{"compound": "CCC(C)CNC(=N)NCCCCCN1CCCC1 (stereo not shown) [Example 67, bis-hydrochloride]", "Kb": "50.1 nM"}
{"compound": "N=C(NCc1ccc(Cl)cc1)N(CCCCN1CCCC1)Cc1ccc(Cl)cc1 [Example 52, bis-hydrochloride]", "Kb": "316 nM"}
{"compound": "CN1CCCC1CCNS(=O)(=O)c1ccc2ccccc2c1 (stereo not shown) [Example 89]", "Kb": "631 nM"}
{"compound": "CN1CCCC1CCCCNS(=O)(=O)Cc1ccc(Cl)cc1 (stereo not shown) [Example 104]", "Kb": "398 nM"}

I'm hoping you can list Kb for every compound here, please.
1. CNC(=NCCCN1CCCC1)NCc1ccc(Cl)cc1 [Example 64]
2. N=C(NCCCCCN1CCCC1)NCCc1ccc(Cl)cc1 [Example 25, bis-hydrochloride]
3. N=C(NCCCN1CCCC1)NCc1cccc(Br)c1 [Example 10, bis-hydrochloride]

1. 631 nM
2. 79.4 nM
3. 316 nM

I'm hoping you can list Kb for every compound here, please.
1. N=C(NCCCCCN1CCCC1)NCC1CCCCO1 (stereo not shown) [Example 58, bis-hydrochloride]
2. CN1CCC[C@H]1CCCNS(=O)(=O)NCC1CCCCC1 [Example 110]
3. COC(=O)c1ccc(CNC(N)=NCCCN2CCCC2)cc1 [Example 14, bis-hydrochloride]

1. 200 nM
2. 2510 nM
3. 1000 nM

I'm hoping you can list Kb for every compound here, please.
1. N=C(NCCCCN1CCCC1)NCCc1ccc(Cl)cc1 [Example 24, bis-hydrochloride]
2. O=S(=O)(NCCN1CCCC1)c1ccc2ccccc2c1 [Example 81]
3. N=C(N)N(CCCCCCN1CCCC1)Cc1ccccc1 [Example 73, bis-hydrochloride]
4. O=S(=O)(NCCCCCN1CCCC1)NCc1ccc(Cl)cc1 [Example 141]
5. CN1CCC[C@H]1CCNS(=O)(=O)NCc1ccc(Cl)cc1 [Example 115]
6. CN1CCC[C@H]1CCCNS(=O)(=O)NCc1ccc(I)cc1 [Example 114]
7. N=C(NCCCCCN1CCCC1)NCc1ccccc1 [Example 47, bis-hydrochloride]

631 nM
1260 nM
15.8 nM
501 nM
398 nM
100 nM
50.1 nM

I'm hoping you can list Kb for every compound here, please.
1. CN1CC(OCc2ccc(Cl)cc2)CC1CCCNS(=O)(=O)NCc1ccc(Cl)cc1 (stereo not shown) [Example 133]
2. N=C(NCCCCN1CCCC1)NCCCC12CC3CC(CC(C3)C1)C2 [Example 36, bis-hydrochloride]
3. N=C(NCCCCN1CCCC1)NCc1ccc(Cl)cc1 [Example 17, bis-hydrochloride]
4. O=S(=O)(NCCCN1CCCC1)NCc1ccc(Cl)cc1 [Example 135]
5. CN1CCC[C@H]1CCCN(C)S(=O)(=O)N(C)Cc1ccc(Cl)cc1 [Example 120]
6. CN1CCC[C@H]1CCCNS(=O)(=O)CCc1ccc(Cl)cc1 [Example 102]
7. N=C(N)N(CCCCCCN1CCCC1)Cc1ccc(Br)cc1 [Example 74, bis-hydrochloride]
8. CN1CCC[C@H]1CCCNS(=O)(=O)c1ccc2ccccc2c1 [Example 91]

["> 3160 nM", "63.1 nM", "50.1 nM", "631 nM", "501 nM", "316 nM", "12.6 nM", "501 nM"]

Measured values drawn from patent US6878736B1 for this set.
